The origin of these recorded values is patent US20180036441A1.

Measured geometric mean, listed per entry.
# TEST TARGET: T1, MUC1 on HCT116/MUC1 cells (UniProt P15941 24-1255, limits assumed)
# T1 construct: whole, on cells; also called MUC1 overexpressed cell line
# T1 sequence (P15941 24-1255 limits assumed): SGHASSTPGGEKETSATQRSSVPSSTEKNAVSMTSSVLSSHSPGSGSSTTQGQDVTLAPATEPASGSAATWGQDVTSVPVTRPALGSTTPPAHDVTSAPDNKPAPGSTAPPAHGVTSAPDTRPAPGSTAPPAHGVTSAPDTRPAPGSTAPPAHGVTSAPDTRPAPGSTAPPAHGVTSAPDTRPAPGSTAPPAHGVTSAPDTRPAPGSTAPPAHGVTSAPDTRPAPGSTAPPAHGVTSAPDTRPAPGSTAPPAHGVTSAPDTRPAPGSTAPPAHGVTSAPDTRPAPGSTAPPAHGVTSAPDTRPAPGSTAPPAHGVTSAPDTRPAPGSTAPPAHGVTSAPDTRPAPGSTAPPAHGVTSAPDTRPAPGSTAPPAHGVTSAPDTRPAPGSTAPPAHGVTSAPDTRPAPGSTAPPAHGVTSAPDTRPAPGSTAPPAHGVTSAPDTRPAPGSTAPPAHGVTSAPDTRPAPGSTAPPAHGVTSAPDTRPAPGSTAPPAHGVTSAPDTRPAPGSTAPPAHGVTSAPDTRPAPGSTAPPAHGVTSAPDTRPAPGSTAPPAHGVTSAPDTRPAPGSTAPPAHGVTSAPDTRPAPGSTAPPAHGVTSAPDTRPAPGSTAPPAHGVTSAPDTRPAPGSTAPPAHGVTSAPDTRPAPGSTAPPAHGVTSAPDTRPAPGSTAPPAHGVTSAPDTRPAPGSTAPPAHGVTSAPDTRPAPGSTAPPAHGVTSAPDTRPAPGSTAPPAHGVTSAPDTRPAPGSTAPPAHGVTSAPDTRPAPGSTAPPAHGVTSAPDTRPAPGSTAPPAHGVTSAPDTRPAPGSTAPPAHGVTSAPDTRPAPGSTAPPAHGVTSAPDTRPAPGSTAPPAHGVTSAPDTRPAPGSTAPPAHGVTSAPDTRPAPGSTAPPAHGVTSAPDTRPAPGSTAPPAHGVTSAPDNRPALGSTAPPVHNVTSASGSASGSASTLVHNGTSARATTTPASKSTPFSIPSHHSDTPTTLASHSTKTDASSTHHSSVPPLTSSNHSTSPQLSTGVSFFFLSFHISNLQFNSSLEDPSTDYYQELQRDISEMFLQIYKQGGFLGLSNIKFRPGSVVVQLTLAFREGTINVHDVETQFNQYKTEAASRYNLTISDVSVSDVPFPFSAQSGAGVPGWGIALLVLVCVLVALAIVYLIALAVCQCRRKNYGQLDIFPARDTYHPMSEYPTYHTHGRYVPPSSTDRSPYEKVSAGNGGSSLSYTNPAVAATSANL
# METHOD NOTES: FACS titration, HCT116/MUC1 cells, antibody at 62.5 nM
Answer using only a numeral; do not append any unit.

- BINDER: "VH1 + VL4 (antibody, V domains shown, Humanized IgG expressed in HEK293; also called humanized antibody VH1+VL4) VH: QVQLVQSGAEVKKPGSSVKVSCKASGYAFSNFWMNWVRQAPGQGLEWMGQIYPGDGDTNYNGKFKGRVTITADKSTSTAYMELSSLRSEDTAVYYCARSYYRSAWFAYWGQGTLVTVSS VL: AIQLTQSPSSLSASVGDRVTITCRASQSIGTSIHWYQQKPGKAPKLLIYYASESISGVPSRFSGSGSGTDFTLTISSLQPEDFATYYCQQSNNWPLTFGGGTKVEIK"
  geometric mean: 111
- BINDER: "VH3 + VL3 (antibody, V domains shown, Humanized IgG expressed in HEK293; also called humanized antibody VH3+VL3) VH: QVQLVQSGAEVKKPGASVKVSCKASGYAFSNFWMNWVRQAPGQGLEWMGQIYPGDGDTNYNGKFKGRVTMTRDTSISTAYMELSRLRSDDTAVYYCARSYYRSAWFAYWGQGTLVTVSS VL: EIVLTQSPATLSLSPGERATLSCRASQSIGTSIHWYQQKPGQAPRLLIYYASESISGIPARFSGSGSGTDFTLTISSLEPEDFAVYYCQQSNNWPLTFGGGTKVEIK"
  geometric mean: 134

Data request: Form field: reported geometric mean of VH2 + VL1 (antibody, V domains shown, Humanized IgG expressed in HEK293; also called humanized antibody VH2+VL1) VH: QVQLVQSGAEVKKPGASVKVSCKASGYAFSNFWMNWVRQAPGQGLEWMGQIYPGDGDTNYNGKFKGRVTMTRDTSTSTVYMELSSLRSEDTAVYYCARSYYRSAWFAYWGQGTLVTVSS VL: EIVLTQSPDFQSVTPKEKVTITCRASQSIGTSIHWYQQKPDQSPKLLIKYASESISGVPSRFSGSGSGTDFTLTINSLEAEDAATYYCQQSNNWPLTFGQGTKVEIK
Data returned: 265
